Where do the numbers come from? From patent EP0399731B2.

biological target: All (angiotensin II) receptors (Cavia porcellus, UniProt Q9WV26)
Sequence (Q9WV26 whole entry): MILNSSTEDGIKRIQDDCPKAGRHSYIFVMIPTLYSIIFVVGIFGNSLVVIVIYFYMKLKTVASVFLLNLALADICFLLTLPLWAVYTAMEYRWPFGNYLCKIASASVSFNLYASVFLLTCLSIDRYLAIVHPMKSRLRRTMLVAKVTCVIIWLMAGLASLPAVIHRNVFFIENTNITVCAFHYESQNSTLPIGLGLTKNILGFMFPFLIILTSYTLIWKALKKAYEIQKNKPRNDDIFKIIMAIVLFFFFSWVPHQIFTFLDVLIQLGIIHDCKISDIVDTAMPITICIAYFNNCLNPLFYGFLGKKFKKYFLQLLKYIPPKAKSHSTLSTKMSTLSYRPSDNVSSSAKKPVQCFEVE
experimental.readout: IC50 (nM)

>  <compound>
CCCCc1nc2cccnc2n1Cc1ccc(-c2ccccc2-c2nnn[nH]2)cc1.Cl [Example 3, hydrochloride]

>  <data.value>
14.9

$$$$
